# Assayed target: integrin alpha5beta1 extracellular domain Fc-fusion (Homo sapiens, UniProt P05556+P08648)
# Construct: The integrin alpha5beta1 extracellular domain Fc-fusion was expressed and purified as described
# Assay summary: alpha5beta1 - Fibronectin Binding Assay (competitive ELISA)
# Experimental context: inhibition of integrin binding to fibronectin
pIC50: −log10 of the molar value.
Readout type: pIC50

Worked cases, pIC50 given:
Compound: Cc1ccnc(NCc2cc(-c3ccc(C[C@H](NC(=O)c4c(C)cc(C)cc4C)C(=O)O)cc3)on2)c1 [Compound 6]
Readout type: pIC50
Experimental value: > 7.00
--
Compound: Cc1ccnc(NCc2coc(-c3ccc(C[C@H](NC(=O)c4c(C)cccc4C)C(=O)O)cc3)c2)c1 [Compound 35]
Readout type: pIC50
Experimental value: > 7.00

Log: integrin alpha5beta1 extracellular domain Fc-fusion (Homo sapiens, UniProt P05556+P08648), compound Cc1ccnc(NCc2coc(-c3ccc(C[C@H](NC(=O)c4c(C)cc(C)cc4C)C(=O)O)cc3)c2)c1 [Compound 12] , pIC50 = > 7.00
